Biological target: T1, PXY extracellular domain (PXY-ECD) (Arabidopsis thaliana, UniProt Q9FII5 30-647)
T1 chain: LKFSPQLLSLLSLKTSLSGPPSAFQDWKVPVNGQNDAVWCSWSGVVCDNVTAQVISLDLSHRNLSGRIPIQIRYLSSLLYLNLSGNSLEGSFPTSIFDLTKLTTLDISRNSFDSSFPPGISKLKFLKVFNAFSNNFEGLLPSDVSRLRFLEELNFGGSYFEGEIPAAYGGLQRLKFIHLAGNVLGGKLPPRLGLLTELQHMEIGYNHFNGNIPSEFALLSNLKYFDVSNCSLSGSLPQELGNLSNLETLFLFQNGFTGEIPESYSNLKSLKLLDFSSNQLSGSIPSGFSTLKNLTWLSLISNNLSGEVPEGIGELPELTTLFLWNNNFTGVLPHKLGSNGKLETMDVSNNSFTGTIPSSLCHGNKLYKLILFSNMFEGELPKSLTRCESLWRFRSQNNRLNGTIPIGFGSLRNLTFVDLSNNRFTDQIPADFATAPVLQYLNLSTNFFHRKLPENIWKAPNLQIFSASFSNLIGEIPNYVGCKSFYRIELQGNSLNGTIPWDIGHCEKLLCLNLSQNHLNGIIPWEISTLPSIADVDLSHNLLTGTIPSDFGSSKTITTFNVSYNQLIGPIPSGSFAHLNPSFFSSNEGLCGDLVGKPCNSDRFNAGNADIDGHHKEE
Test: ITC
Endpoint Label: pKd
Worth noting: pKd values are minus log10 of concentrations stated in mol/L.

Lab note: HEVPSGPNPISN (CLE41/44 (TDIF), mature 12-residue CLE peptide of Arabidopsis, the same from CLE41 and CLE44; The same peptide is also encoded by CLE44; also called TDIF; source: synthetic peptide (Peptide Specialty Laboratories, Heidelberg)) [CLE41/44 peptide (ITC, unmodified as printed)] gave pKd of 7.91
